Listed here are compounds together with their documented pIC50.
tested_on: Calmodulin-Dependent Phosphodiesterase (Ca^2+ PDE)
assay_protocol: Calmodulin-Dependent Phosphodiesterase Inhibition (Ca^2+ PDE)
assay_context: [^3 H]-cGMP, 30° C.
API: returns pIC50 as number; meaning -log10 of concentration in mol/L.

- CCN(CC=Cc1ccc(Cl)cc1)CCN(CC)S(=O)(=O)c1cccc2cnccc12: 4.08
- O=C(C(Cc1ccc([N+](=O)[O-])cc1)NS(=O)(=O)c1cccc2cnccc12)N1CCN(c2ccccc2)CC1 (centres unmarked): 4.23

Given item CN(C(Cc1ccc(O)cc1)CN1CCC(OCc2ccc(Cl)c(Cl)c2)CC1)S(=O)(=O)c1cccc2cnccc12 (centres unmarked) , the value recorded as its pIC50 is 5.47

Given item `O=S(=O)(NCCNCC=Cc1ccc(Br)cc1)c1cccc2cnccc12` , the value recorded as its pIC50 is 5.07

Given item CN(C(Cc1ccc(O)cc1)CN1CCN(c2ccccc2)CC1)S(=O)(=O)c1cccc2ccccc12 (centres unmarked) , the value recorded as its pIC50 is 4.20

----------
tested_on: Calmodulin-Dependent Phosphodiesterase (Ca^2+ PDE)
assay_protocol: Calmodulin-Dependent Phosphodiesterase Inhibition (Ca^2+ PDE)
assay_context: [^3 H]-cGMP, 30° C.
Listed here are compounds together with their documented IC50.
Give the quantity in µM, number only.

- O=C([C@H](Cc1ccc(O)cc1)NS(=O)(=O)c1cccc2cnccc12)N1CCN(c2ccccc2)CC1: 77
- CN(C(Cc1cnc[nH]1)CN1CCN(c2ccccc2)CC1)S(=O)(=O)c1cccc2cnccc12 (centres unmarked): 53
- CN(C(Cc1ccc(OS(=O)(=O)c2cccc3cnccc23)cc1)CN1CCC(c2ccccc2)CC1)S(=O)(=O)c1cccc2cnccc12 (centres unmarked): 63
- O=CN(CC=Cc1ccc(Cl)cc1)CCNS(=O)(=O)c1cccc2cnccc12: 12

Please turn your attention to the following entry.
Given item `O=S(=O)(NCCNCC=Cc1cccc2ccccc12)c1cccc2cnccc12` , the value recorded as its IC50 is 12

The reported measurements were obtained from patent US5245034A.
